Reported Mean fluorescent intensity values are given for each entry in this list.
Target: T1, BCMA on cells (293T cells transfected with BCMA; H929, MM.1S and U266 cell lines expressing BCMA) (human, UniProt Q02223 1-184)
T1 construct: H929, MM.1S and U266 carry the native protein; also called B-cell Maturation Antigen; TNFRSF17
T1 sequence: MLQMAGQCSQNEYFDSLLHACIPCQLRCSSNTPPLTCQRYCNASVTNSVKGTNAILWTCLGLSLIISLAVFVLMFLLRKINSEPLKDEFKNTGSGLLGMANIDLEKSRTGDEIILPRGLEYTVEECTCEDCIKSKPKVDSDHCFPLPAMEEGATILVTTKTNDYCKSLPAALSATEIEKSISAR
Experiment: flow cytometry, H929 cells; further: test concentration or dose not given here
Form field (numeric): enter value without unit.

Known Mean fluorescent intensity results, listed for orientation:
SCT-Aa18(h/h) (antibody, V domains shown, Full IgG format, chimeric: human IgG1 heavy chain constant region, human kappa light chain constant region) VH: EVQLQQSGPELVKPGASVKISCKASGYTFISYVMHWVKQKPGQGLEWIGYIIPYNDGTKYNEKFKGKATLTSDKSSSTAYMELSSLTSEDSAVYYCAKWGNWDEGTWFPYWGQGTLVTVSA VL: DVLMTQTPLSLPVSLGDQASFSCRSSQSIVHSDGNTYLEWYLQKPGQSPKLLIYKISNRFSGVPDRFSGSGSGTDFTLKISRVEAEDLGVYYCFQGSHVPWTFGGGTKLEIK | 875
SCT-Aa17(h/h) (antibody, V domains shown, Full IgG format, chimeric: human IgG1 heavy chain constant region, human kappa light chain constant region) VH: EVQLQQSGPELVKPGASVKMSCKASGYTFTSYVMDWVKQKPGQGLEWIGYINPYNDGTKYNEKFKGKATLTSDKSSSTVYMELSSLTSEDSAVYHCARSDYDYGYAMDYWGQGTSVTVSS VL: DIQMTQSPASLSLSVGETVTITCRASENIYSNLAWYQQKQGNSPQLLVYSATHLADGVPSRFSGSGSGTQYSLKINSLQSEDFGCYYCQHFWGPPWTFGGGTKLEIK | 232
SCT-Aa03(m/m) (antibody, V domains shown, Full IgG format: mouse IgG1 heavy chain constant region, mouse kappa light chain constant region) VH: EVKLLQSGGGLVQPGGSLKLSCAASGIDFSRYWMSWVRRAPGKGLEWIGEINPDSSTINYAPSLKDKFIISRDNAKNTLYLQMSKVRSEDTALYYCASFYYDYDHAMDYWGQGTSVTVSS VL: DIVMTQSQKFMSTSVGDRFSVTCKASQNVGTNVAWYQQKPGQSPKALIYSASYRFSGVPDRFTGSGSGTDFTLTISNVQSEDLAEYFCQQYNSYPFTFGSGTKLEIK | 3920

For SCT-Aa01(m/m) (antibody, V domains shown, Full IgG format: mouse IgG1 heavy chain constant region, mouse kappa light chain constant region) VH: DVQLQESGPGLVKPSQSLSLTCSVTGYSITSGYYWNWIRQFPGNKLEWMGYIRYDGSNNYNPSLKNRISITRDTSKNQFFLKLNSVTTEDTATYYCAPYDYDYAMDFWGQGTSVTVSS VL: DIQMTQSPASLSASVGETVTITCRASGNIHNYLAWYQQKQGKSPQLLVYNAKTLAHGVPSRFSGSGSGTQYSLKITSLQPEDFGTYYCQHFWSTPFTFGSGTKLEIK , what is its reported Mean fluorescent intensity?
2090

Each recorded value in this set is attributed to patent US20210332145A1.
